# Test system: KIT;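 also: KINOMEscan kinase panel screen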
# Measurement parameters: concentration: 1 μM, replicates: in singlicate; n = 1
In plain terms, low %Inh, meaning strictly below 20%, gives label 1, and everything else gives label 0.

In [3]: df
Out[3]:
                            compound_string  classification
0                        CNc1ncnc2[nH]ncc12         label 1
1  Cc1cn2c(=O)cc(N3CCOCC3)nc2n1Cc1cccc(Cl)c1Cl         label 0
2  NS(=O)(=O)c1cccc(-c2ccc3nccc(-c4cccc(S(N)(=O)=O)c4)c3c2)c1         label 1
3  O=C1NC(=O)C(N2CCc3ccccc32)=C1c1cccc(Cl)c1         label 1
4  COc1ccc(COc2cc(-n3cnc4ccccc43)sc2C(N)=O)cc1         label 0
5  NS(=O)(=O)CCc1cccc(Nc2nccc(-c3c(-c4cccc(NC(=O)c5c(F)cccc5F)c4)nn4ccccc34)n2)c1         label 0
6  CN(C(=O)c1ccc(-c2cc(-c3c[nH]nc3-c3ccccn3)ccn2)cc1)C1CCOCC1         label 1
7  N#Cc1c(N2CCOCC2)sc(-c2ccn[nH]2)c1-c1ccc(Cl)cc1         label 0
